Target: GST-E2F1 (UniProt Q01094 1-437)
Sequence (Q01094 whole entry): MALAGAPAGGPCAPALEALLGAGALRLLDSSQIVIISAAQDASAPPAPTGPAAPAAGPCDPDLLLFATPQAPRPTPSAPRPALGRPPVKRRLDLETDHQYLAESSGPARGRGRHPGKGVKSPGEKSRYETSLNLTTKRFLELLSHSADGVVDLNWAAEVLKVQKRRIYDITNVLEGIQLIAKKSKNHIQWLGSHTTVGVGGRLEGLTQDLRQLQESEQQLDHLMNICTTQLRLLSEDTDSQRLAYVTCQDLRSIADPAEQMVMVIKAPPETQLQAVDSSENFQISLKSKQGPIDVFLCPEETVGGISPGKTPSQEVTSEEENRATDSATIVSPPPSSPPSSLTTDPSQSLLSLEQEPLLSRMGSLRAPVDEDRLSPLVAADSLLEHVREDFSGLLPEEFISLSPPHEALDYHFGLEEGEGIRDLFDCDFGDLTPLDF
Assay: EMSA; EMSA as in ref 34 (buffer, pH, temperature not given); 1.8 ug GST-E2F1 per reaction, 24 ng/ul ds mutant adenovirus E2 E2F-site oligo as nonspecific competitor
Details: protein: recombinant; label: 32P; blunt
Measurement Label: binding result

EBP1 -168 probe (-168 to -130) (dsDNA) DNA 1: GCTTAGGAGCGCGAGAGGCAGGCTGGGAATTGTAGTTC DNA 2: GAACTACAATTCCCAGCCTGCCTCTCGCGCTCCTAAGC: binds
EBP1 -166 (-113*) (dsDNA) DNA 1: TTAGGAGCGCGAGAGGCAGGCTGGGAATTGTAGTTCGAAGGCCCTCGAGAAAAAATAGAGTC DNA 2: GACTCTATTTTTTCTCGAGGGCCTTCGAACTACAATTCCCAGCCTGCCTCTCGCGCTCCTAA: binds
EBP1 -166 (-158*) (dsDNA) DNA 1: TTAGGAAAAAAAGAGGCAGGCTGGGAATTGTAGTTCGAAGGCCCTCGAGAGCGGCTAGAGTC DNA 2: GACTCTAGCCGCTCTCGAGGGCCTTCGAACTACAATTCCCAGCCTGCCTCTTTTTTTCCTAA: binds

Origin of values: paper PMC2978110
